Measured AC50 (Cytochrome P450 2D6 (Homo sapiens, UniProt P10635))

Cc1noc(C)c1C(=O)N1CCC2(CCN(Cc3cc(C(F)(F)F)cc(C(F)(F)F)c3)CC2)CC1 = 39.8 µM (inconclusive)
CCn1nccc1C(=O)Nc1nc2ccccc2n1CCN1CCCCC1 = 4.47 µM (inconclusive)
Cc1noc(C)c1C(=O)N1CCC[C@@]2(CCN(c3ccccn3)C2)C1 = 6.31 µM (inconclusive)
CN(C)c1ncc2nc(CCc3ccccc3)c(=O)n(CCc3ccccc3)c2n1 = 7.94 µM (inconclusive)
CC(C)c1c(CN(C)[C@@H](C)Cc2ccccc2)n(C)n(-c2ccccc2)c1=O = 10 µM (inconclusive)

Query: Fill: AC50 (Cytochrome P450 2D6 (Homo sapiens, UniProt P10635)) for this compound CC1=C(C(=O)OCc2ccccc2)C(c2ccc3ccccc3c2)NC(=O)N1CCCCCC(=O)O (centres undefined)
Response: 39.8 µM (inconclusive)

Query: Fill: AC50 (Cytochrome P450 2D6 (Homo sapiens, UniProt P10635)) for this compound `COc1cccc2c1C(=N)c1c(O)c3c(c(O)c1C2=O)C[C@](O)(C(C)=O)C[C@@H]3O[C@H]1C[C@H](N)[C@@H](O)[C@H](C)O1`
Response: 3.16 µM (inconclusive)

Query: Fill: AC50 (Cytochrome P450 2D6 (Homo sapiens, UniProt P10635)) for this compound CC1CCOC2(O1)C(=O)N(CN1CCN(c3ccccc3F)CC1)c1ccccc12 (centres undefined)
Response: 25.1 µM (inconclusive)

Query: Fill: AC50 (Cytochrome P450 2D6 (Homo sapiens, UniProt P10635)) for this compound `Cc1ccc(S(=O)(=O)c2cc3ccccc3o/c2=N\c2ccc3c(c2)OCO3)cc1`
Response: 7.94 µM (inconclusive)

---

measurement_protocol: HIV-1 AD8 envelope cell-cell fusion blockers – cherry-pick, dose response (AID 652062);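 further: luciferase signal from cell-cell fusion driven by HIV-1 clade B AD8 Env; potency is for inhibitors of fusion seen as a drop in luminescence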
Format: functional, cell-based
The source made the active and inactive calls.
measurement_type: AC50

Reference set, count: 4
Cc1ccc(-c2ccc3c(c2)O[C@@H](CN(C)Cc2ccncc2)[C@H](C)CN([C@H](C)CO)S3(=O)=O)cc1 = 14.2 µM (active)
Cc1ccc(COC(=O)c2cc(S(=O)(=O)N3CCCCC3)ccc2N2CCOCC2)cc1 = 10.6 µM (active)
CCN1C(=Cc2sc3ccccc3[n+]2C)C=Cc2cccc(C)c21 = 1.05 µM (active)
CC[C@@]1(C(=O)OC)N[C@H](CN(C)S(=O)(=O)c2ccc(-c3ccccc3)cc2)[C@@H]2C(=O)N(Cc3ccccc3)C(=O)[C@@H]21 = 2.54 µM (active)

Continue with the next molecule.
Query: Provide measured AC50 value, entry: `C=C1CCN([C@H](C(=O)OCc2cccc(C)c2)C(C)C)S(=O)(=O)c2ccccc21`
Response: 4.76 µM (active)

---

target_or_system: Lysine-specific demethylase 4C (Homo sapiens)
Sequence (Q9H3R0 whole entry): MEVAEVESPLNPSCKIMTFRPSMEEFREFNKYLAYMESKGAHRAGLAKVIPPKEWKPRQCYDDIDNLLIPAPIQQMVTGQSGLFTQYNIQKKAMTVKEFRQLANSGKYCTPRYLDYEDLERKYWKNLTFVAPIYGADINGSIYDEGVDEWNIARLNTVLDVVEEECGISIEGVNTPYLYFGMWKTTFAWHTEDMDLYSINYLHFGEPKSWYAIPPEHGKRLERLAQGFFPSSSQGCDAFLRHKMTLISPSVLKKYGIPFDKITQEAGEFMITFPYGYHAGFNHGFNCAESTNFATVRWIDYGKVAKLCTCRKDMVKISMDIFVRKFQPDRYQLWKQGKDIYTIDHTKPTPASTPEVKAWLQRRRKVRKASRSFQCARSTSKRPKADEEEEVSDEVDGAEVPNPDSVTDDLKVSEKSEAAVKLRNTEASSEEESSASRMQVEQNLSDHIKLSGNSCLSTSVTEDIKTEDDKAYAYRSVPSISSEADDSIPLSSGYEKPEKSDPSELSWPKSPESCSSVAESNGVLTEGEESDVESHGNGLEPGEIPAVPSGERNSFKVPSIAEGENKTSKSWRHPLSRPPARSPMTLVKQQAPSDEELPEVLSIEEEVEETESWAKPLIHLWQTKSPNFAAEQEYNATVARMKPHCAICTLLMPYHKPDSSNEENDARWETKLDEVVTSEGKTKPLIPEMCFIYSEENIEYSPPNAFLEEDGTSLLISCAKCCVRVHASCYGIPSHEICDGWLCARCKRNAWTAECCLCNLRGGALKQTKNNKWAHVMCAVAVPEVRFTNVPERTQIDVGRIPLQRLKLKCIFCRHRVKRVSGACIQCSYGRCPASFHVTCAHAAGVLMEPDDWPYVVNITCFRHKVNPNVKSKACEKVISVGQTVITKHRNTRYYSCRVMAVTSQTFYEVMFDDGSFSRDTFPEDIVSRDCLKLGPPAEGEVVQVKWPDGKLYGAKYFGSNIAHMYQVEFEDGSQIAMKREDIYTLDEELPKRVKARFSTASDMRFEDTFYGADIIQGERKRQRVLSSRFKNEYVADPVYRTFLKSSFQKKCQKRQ
measurement_protocol: inhibition of JMJD2C H3K9me3 demethylation – biochemical, DELFIA europium, cherry-picked samples, dose response (AID 488835)
Assay type: functional
Activity calls are given as the source filed them.
Can you answer with just one of these options? active, inactive

O=C(OCc1nnc(-c2ccccc2)o1)c1cc(S(=O)(=O)N2CCOCC2)c(Cl)cc1Cl = active
COc1ccccc1/C=C1/SC(=S)N(C(C)C(=O)NC2C=CS(=O)(=O)C2)C1=O (stereo unspecified) = inactive
O=C(Cc1ccccc1Cl)NC1(O)C(=O)c2ccccc2C1=O = active
Cc1ccccc1NC(=O)c1c(F)c(F)c(F)c(F)c1F = active
COCCCNC(=S)NNC(=O)c1ccccn1 = active

Next item in the queue.
Query: Per the assay record, what outcome was assigned to `CC(=O)c1cc2c(O)c(O)ccc2o1` ?
Response: active
